test: qHTS drug screen for cell cycle checkpoint inhibitors in PARPi-resistant BRCA-mutant ovarian cancer cell lines. (AID 1963452); settings: PEO1/OlaR viability, CellTiter-Glo luminescence, 96 h; measured here: PEO4 Z-AUC; stronger effect = lower value
Please respond with reported Z-AUC for every item in the list.

Observe how each entry below is paired with its result.
COMPOUND: COc1ccc(Cn2ccc3ccc(C(=O)NO)cc32)cc1
Z-AUC: 1

COMPOUND: CCNC(=O)c1noc(-c2cc(C(C)C)c(O)cc2O)c1-c1ccc(CN2CCOCC2)cc1
Z-AUC: -1.08

COMPOUND: CN(C)CCCNC(=O)c1ccc(-c2cc(O)c3ncccc3c2)cc1
Z-AUC: -0.292

# per-item lookup of Z-AUC; items listed below
1. Cn1c(=O)c(-c2c(Cl)cccc2Cl)cc2cnc(Nc3cccc(C(=O)O)c3)nc21
2. COc1ccc(-c2cc3nccn3c(Nc3ncccc3C(N)=O)n2)cc1OC
3. C=CC(=O)Nc1cccc(Sc2nc(Nc3ccc(N4CCN(C)CC4)cc3)ncc2Cl)c1
4. CN1CCN(c2cccc(Nc3nc4c(-c5ccc(S(C)(=O)=O)cc5)cccn4n3)c2)CC1
5. CC1(COc2ccc3c(c2)ncn3-c2ccc3cccc(N4CCC(N)CC4)c3n2)COC1
6. CCN1CCC(n2cc(CNc3cc(Cl)c4ncc(C#N)c(Nc5ccc(F)c(Cl)c5)c4c3)nn2)CC1

[0.693, 0.0675, 0.0662, 0.131, -0.193, -1.71]

# per-item lookup of Z-AUC; items listed below
1. CSc1cccc(Nc2ncc3cc(-c4c(Cl)cccc4Cl)c(=O)n(C)c3n2)c1
2. C[C@@]1(C(=O)Nc2ccc(F)nc2)CCCN1c1nc(Nc2cc(C3CC3)[nH]n2)c2cccn2n1

1: 0.318; 2: -0.135

# per-item lookup of Z-AUC; items listed below
1. O=C(O)CCNc1cc(N2CCc3ccccc3CC2)nc(-c2ccccn2)n1
2. CC(C)CNc1ccnc(NCc2csc(-c3ccccc3)n2)n1
3. O[C@@H](COc1cccc2ncccc12)CN1CCN(C2c3ccccc3[C@@H]3[C@H](c4ccccc42)C3(F)F)CC1 (stereo partly specified)
4. CN(C)c1ccccc1CN1CCCN(Cc2ccccc2N(C)C)C1c1ccncc1
5. O=C(O)c1ccc(O)c2ncc(N3CCOCC3)cc12

[0.175, -0.83, -0.777, -0.169, -0.698]

====

target: Calcium and integrin-binding protein 1 (Homo sapiens) (UniProt Q99828); assay: Primary qHTS for Identification of Calcium Integrin Binding Protein 1 (CIB1) Competitor (AID 1508620); settings: CIB1-GST / FITC-alphaIIb peptide fluorescence polarization; series mostly up to 57.7 µM
Sequence (Q99828 whole entry, looked up): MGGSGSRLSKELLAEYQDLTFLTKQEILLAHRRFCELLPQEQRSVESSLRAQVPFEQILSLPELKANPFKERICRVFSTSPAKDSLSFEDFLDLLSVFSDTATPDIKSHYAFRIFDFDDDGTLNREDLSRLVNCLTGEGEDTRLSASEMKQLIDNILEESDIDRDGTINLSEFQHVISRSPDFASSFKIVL
Inconclusive results are not listed. The source made the active and inactive calls. Calls follow the shape of the dose curve; as a rule, active = well fitted inhibition curve with a large enough effect; inconclusive = small, poorly fitted or top-dose-only effect; inactive = flat fitted curve, though single readings scatter.
Choose the fitting class; nothing outside active, inactive is accepted.

These recorded examples may help you get a feel for the data.
MOLECULE: CCc1cc(-c2n[nH]c(C)c2-c2ccc3c(c2)OCCO3)c(O)cc1O
LABEL: inactive

MOLECULE: O=C(O)CCC=CCC[C@@H]1[C@H](N2CCCCC2)[C@@H](O)C[C@@H]1OCc1ccc(-c2ccccc2)cc1
LABEL: inactive

MOLECULE: C[C@@H]1CCO[C@H]2Cn3cc(C(=O)NCc4ccc(F)cc4F)c(=O)c(O)c3C(=O)N12
LABEL: inactive

MOLECULE: CC(=O)N1CCN(c2ccc(OCc3nn(C)c(C)c3-c3cccc4c(CCCOc5cc(C)c(Cl)c(C)c5)c(C(=O)O)n(Cc5cccnc5)c34)cc2)CC1
LABEL: inactive

MOLECULE: COC1CCC(C(=O)c2ccc3nc4c(cc3c2)CCCO4)CC1 (stereo not drawn)
LABEL: inactive

Entry "CC(C)C[C@H](NC(=O)c1cc2ccccc2s1)C(=O)N1CCN(C(=O)[C@H](CO)NS(=O)(=O)c2ccc(Cl)cc2Cl)CC1" : call = ? inactive

Entry "C=CCc1cccc(C=NNC(=O)CN2CCN(Cc3ccccc3)CC2)c1O" : call = ? inactive

Entry "Fc1ccc(C(c2ccc(F)cc2)N2CCN(CC=Cc3ccccc3)CC2)cc1" : call = ? active

Entry "C[C@@H](N)c1ccc(C(=O)Nc2ccnc3[nH]ccc23)cc1" : call = ? inactive

====

system: CP269; assay: qHTS profiling for inhibitors of Plasmodium falciparum proliferation (AID 504749); further: nearly all actives have a fitted effect of over 60% in size; details: P. falciparum in erythrocytes, SYBR Green DNA, 72 h; series mostly up to 28.7 µM
Inconclusive results are not listed. Activity calls are given as the source filed them. Calls follow the shape of the dose curve; as a rule, active = well fitted inhibition curve with a large enough effect; inconclusive = small, poorly fitted or top-dose-only effect; inactive = flat fitted curve, though single readings scatter.
Choose the fitting class; nothing outside 1 for active, -1 for inactive is accepted.

These recorded examples may help you get a feel for the data.
COMPOUND: N#Cc1c(N(CC(=O)O)CC(=O)O)sc(C(=O)O)c1CC(=O)O
LABEL: -1
//
COMPOUND: O=C(O)c1nc(=O)[nH]c(=O)[nH]1
LABEL: -1
//
COMPOUND: Cc1cc2nc3c(=O)[nH]c(=O)nc-3n(CC(O)C(O)C(O)CO)c2cc1C (stereo unspecified)
LABEL: -1

Entry N#CC(c1ccc(Cl)cc1)c1c(Cl)cc(-n2ncc(=O)[nH]c2=O)cc1Cl (stereo unspecified) : call = ? -1

Entry "NS(=O)(=O)c1cc(Cl)c(Cl)c(S(N)(=O)=O)c1" : call = ? -1

Entry "COc1c(C)c2c(c(O)c1CC=C(C)CCC(=O)OCCN1CCOCC1)C(=O)OC2" : call = ? 1

====

Assay: Quantitative High-Throughput drug screen in 47 multiple myeloma cell lines against the NCATS MIPE library collection: KMS28BM_JCRB cell viability assay (AID 1919874); further: nearly all actives have a fitted effect of over 35% in size; further: potency means the concentration at half of the fitted maximal effect
Details: CellTiter-Glo ATP, 48 h; series mostly up to 45.8 µM
From the text: PI: Beverly A. Mock Ph.D. Laboratory of Cancer Biology and Genetics, Center for Cancer Research, National Cancer Institute, National Institute of Health, Bethesda, Maryland […] 5; Detector; 425V; Luminescence; Viewlux PerkinElmer. […] 1. […] Briefly, the corresponding myeloma cell lines were screened in 1,536-well plates with 500 cells, 5-uL per well for inhibition of cell viability (assessed by measuring ATP levels with CellTiterGlo). […]
Results filed as inconclusive are left out. Calls of active or inactive are those of the source. Calls follow the shape of the dose curve; as a rule, active = well fitted cell-killing curve with a large enough effect; inconclusive = small, poorly fitted or top-dose-only effect, or effect the other way; inactive = no such curve, though single readings can be large or run the other way.
MEASURED_QUANTITY: Potency

COMPOUND: OC1CCC(Nc2ncc3nc(Nc4c(F)cc(F)cc4F)n([C@@H]4CCOC4)c3n2)CC1 (some centres not stated)
MEASURED_VALUE: inactive

COMPOUND: CN[C@@H](C)[C@H]1[C@H](O)C[C@@]2(C)[C@@H]3CC[C@H]4C(C)(C)[C@@H](NC)CC[C@@]45C[C@@]35CC[C@]12C
MEASURED_VALUE: inactive

COMPOUND: O=C1Nc2ccc(I)cc2C1=Cc1cc(Br)c(O)c(Br)c1
MEASURED_VALUE: inactive

COMPOUND: CCN1CCC(n2cc(CNc3cc(Cl)c4ncc(C#N)c(Nc5ccc(F)c(Cl)c5)c4c3)nn2)CC1
MEASURED_VALUE: 20.9 µM (active)

COMPOUND: CCN(CCO)CCCOc1ccc2c(Nc3cc(CC(=O)Nc4cccc(F)c4)[nH]n3)ncnc2c1
MEASURED_VALUE: 0.0372 µM (active)

# per-item lookup of Potency; items listed below
1. CN1CCc2c(n(Cc3ccc(C(=O)NO)cc3)c3ccccc23)C1
2. Cc1cc(OCCCS(C)(=O)=O)cc(C)c1-c1cccc(COc2ccc3c(c2)OC[C@H]3CC(=O)O)c1
3. O=c1[nH]nc(OCCCc2ccc(Cl)cc2)c(NCc2cccnc2)c1Br

1. 18.7 µM (active)
2. 20.9 µM (active)
3. 20.9 µM (active)

# per-item lookup of Potency; items listed below
1. C=CCc1cccc(C=NNC(=O)CN2CCN(Cc3ccccc3)CC2)c1O
2. CCOC(=O)[C@H](CCc1ccccc1)N[C@@H](C)C(=O)N1CCCC1C(=O)O (some centres not stated)
3. CC[C@H](NC(=O)[C@H](C)NC)C(=O)N1C[C@@H](O)C[C@H]1Cc1c(-c2[nH]c3cc(F)ccc3c2C[C@H]2C[C@H](O)CN2C(=O)[C@H](CC)NC(=O)[C@H](C)NC)[nH]c2cc(F)ccc12
4. Cc1[nH]c(C=C2C(=O)Nc3ccc(S(=O)(=O)N(C)c4cccc(Cl)c4)cc32)c(C)c1C(=O)N1CCN(C)CC1
5. Cc1cccc2c1CC[C@H](CN1CCC(c3c(Cl)cccc3Cl)CC1)C[C@@H]2O
6. CCOC(=O)[C@H]1O[C@H]1C(=O)N[C@@H](CC(C)C)C(=O)NCCC(C)C
7. CN(C)c1ccccc1CN1CCCN(Cc2ccccc2N(C)C)C1c1ccncc1
8. CCC[C@@H](NC(=O)[C@@H]1[C@H]2CCC[C@@H]2CN1C(=O)[C@@H](NC(=O)[C@@H](NC(=O)c1cnccn1)C1CCCCC1)C(C)(C)C)C(=O)C(=O)NC1CC1

1. 7.43 µM (active)
2. inactive
3. inactive
4. 16.6 µM (active)
5. 14.8 µM (active)
6. inactive
7. inactive
8. 18.7 µM (active)

Per the records, this compound ( "N=C1SC(=Cc2ccc(-c3ccc4c(c3)C(=O)NC4=O)o2)C(=O)N1c1ccc(Br)cc1" ) has Potency equal to inactive
